test.method.notes: NCI Yeast Anticancer Drug Screen. Data for the cln2 rad14 strain (AID 165);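 also: 0% = growth equal to vehicle treated cultures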
applied.conditions: S. cerevisiae cln2 rad14 strain, at 50.0 µM, stronger effect = higher value
Compounds without any hit were thinned out: in the full panel of roughly 79,000, 15% have a hit. Calls of active or inactive are those of the source. Rule as the data show it: active = growth inhibition above about 70%; inactive = the rest.
Reported growth inhibition by item:

CN(C)CCN(C(=Nc1ccccc1)N1CCCC1)c1ccccc1 = 17.1% (inactive)
N#CC1=C(O)NC(O)=C(C#N)C12C(=O)Nc1ccccc12 = 3.15% (inactive)
COCC(=O)C(C(C)=O)C(c1ccncc1)C(C(C)=O)C(=O)COC (stereo unspecified) = -10.2% (inactive)
CCOC(CN=Cc1cccc2ccccc12)OCC = 46.7% (inactive)
CCC(C(=O)c1ccccc1)C1(C(=O)OC)NC(=S)NC(=O)C1C#N (stereo unspecified) = -17.9% (inactive)
O=C(O)CN1CCN(CC(=O)O)CCN(CC(=O)O)CCN(CC(=O)O)CC1 = -17.6% (inactive)

Moving on to another compound below.
INPUT: Return reported growth inhibition; argument: CC(C)(C)OC(=O)NC(Cc1ccccc1)C(=O)OCN1C(=O)C2C3C=CC(C2C1=O)C1C2C(=O)N(COC(=O)C(Cc4ccccc4)NC(=O)OC(C)(C)C)C(=O)C2C31 (stereo unspecified)
OUTPUT: -6.55% (inactive)

* * *

test.method.notes: NCI Yeast Anticancer Drug Screen. Data for the bub3 strain (AID 167)
applied.conditions: S. cerevisiae bub3 mutant strain, at 50.0 µM, stronger effect = higher value
About 79,000 compounds went through this panel and 15% of them were active in at least one assay; those are over-represented in the sample as a whole. Calls of active or inactive are those of the source. Cut-off read from the data, not from the text of the source: active = growth inhibition above about 70%; inactive = the rest.
measurement.kind: growth inhibition

Some solved entries appear below for comparison.
OCc1ccc(-c2ccccc2)cc1 = 3.7% (inactive)
CCNc1ccc(-c2ccc(NCC)cc2)cc1 = -1.45% (inactive)
Nc1ccccc1/C(O)=C1/CCOC1=O = 15.3% (inactive)
O=C(Nc1cccc(Cl)c1Cl)c1cc(/C=C/c2ccc([N+](=O)[O-])cc2)on1 = -8.25% (inactive)
COC1=CC(=O)C(CCC(C)=O)=CC1=O = 15.2% (inactive)

Moving on to another compound below.
INPUT: Return reported growth inhibition; argument: CC(=O)c1cc([N+](=O)[O-])c(O)c([N+](=O)[O-])c1O
OUTPUT: 7.8% (inactive)

* * *

test.method.notes: NCI Yeast Anticancer Drug Screen. Data for the cln2 rad14 strain (AID 165);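 also: 0% = growth equal to vehicle treated cultures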
applied.conditions: S. cerevisiae cln2 rad14 strain, at 50.0 µM, stronger effect = higher value
Experimental: Growth inhibition of yeast strains with defined genetic alterations is measured as a screen for potential anti-cancer activity. Selected strains with alterations in DNA damage repair or cell cycle control were exposed to compounds and growth inhibition was measured relative to vehicle treated controls. The strain used in this assay is cln2 rad14
Compounds without any hit were thinned out: in the full panel of roughly 79,000, 15% have a hit.
measurement.kind: growth inhibition (%)
Report only the number, with the unit % understood.

Some solved entries appear below for comparison.
COc1cc2ccccc2ccc1=O = -3.55
Nc1ccccc1/C(O)=C1/CCOC1=O = 1.5
NC(=S)NNC(=O)c1cccs1 = 3.35
Clc1ccc(N=C(Oc2ccc(Cl)cc2)c2ccccc2)cc1 = -12.4
CCOC(=O)NCC(C)(C)C = -0.65

INPUT: Return reported growth inhibition; argument: CCOC(=O)C1Sc2ccccc2N=C1C (configuration not stated)
OUTPUT: -1.25

INPUT: Would you kindly repeat that for Cc1ccc(CCS(=O)(=O)N=[N+]=[N-])cc1 ?
OUTPUT: -53.8

INPUT: Would you kindly repeat that for CCOC(Cn1ncc(C#N)c1N)OCC ?
OUTPUT: -15.9

INPUT: Would you kindly repeat that for O=C1CSC(c2ccccc2C(F)(F)F)N1c1nncs1 (configuration not stated) ?
OUTPUT: -46

INPUT: Would you kindly repeat that for CC(C)[Si]1(C(C)C)OCC2OC(n3c(C(=O)c4ccccc4)cc(=O)[nH]c3=O)CC2O[Si](C(C)C)(C(C)C)O1 (configuration not stated) ?
OUTPUT: 24.4

INPUT: Would you kindly repeat that for CN1C(c2ccncc2)=NCC12CCCCC2 ?
OUTPUT: 1.05

INPUT: Would you kindly repeat that for Cc1csnn1 ?
OUTPUT: -1.4

INPUT: Would you kindly repeat that for CC(C)=CCC\C(C)=C/C=C/C(C)=C\C=C\C(C)=C/C=C/C=C(C)\C=C\C=C(C)/C=C/C=C(/C)CCC=C(C)C ?
OUTPUT: 30.9

INPUT: Would you kindly repeat that for O=C(NN1C(=O)CSC1c1ccccc1F)c1ccncc1 (configuration not stated) ?
OUTPUT: 7.7
